assay-target: JAK1 (Homo sapiens, UniProt P23458)
Construct: purchased Carna Biosciences
Sequence (P23458 whole entry): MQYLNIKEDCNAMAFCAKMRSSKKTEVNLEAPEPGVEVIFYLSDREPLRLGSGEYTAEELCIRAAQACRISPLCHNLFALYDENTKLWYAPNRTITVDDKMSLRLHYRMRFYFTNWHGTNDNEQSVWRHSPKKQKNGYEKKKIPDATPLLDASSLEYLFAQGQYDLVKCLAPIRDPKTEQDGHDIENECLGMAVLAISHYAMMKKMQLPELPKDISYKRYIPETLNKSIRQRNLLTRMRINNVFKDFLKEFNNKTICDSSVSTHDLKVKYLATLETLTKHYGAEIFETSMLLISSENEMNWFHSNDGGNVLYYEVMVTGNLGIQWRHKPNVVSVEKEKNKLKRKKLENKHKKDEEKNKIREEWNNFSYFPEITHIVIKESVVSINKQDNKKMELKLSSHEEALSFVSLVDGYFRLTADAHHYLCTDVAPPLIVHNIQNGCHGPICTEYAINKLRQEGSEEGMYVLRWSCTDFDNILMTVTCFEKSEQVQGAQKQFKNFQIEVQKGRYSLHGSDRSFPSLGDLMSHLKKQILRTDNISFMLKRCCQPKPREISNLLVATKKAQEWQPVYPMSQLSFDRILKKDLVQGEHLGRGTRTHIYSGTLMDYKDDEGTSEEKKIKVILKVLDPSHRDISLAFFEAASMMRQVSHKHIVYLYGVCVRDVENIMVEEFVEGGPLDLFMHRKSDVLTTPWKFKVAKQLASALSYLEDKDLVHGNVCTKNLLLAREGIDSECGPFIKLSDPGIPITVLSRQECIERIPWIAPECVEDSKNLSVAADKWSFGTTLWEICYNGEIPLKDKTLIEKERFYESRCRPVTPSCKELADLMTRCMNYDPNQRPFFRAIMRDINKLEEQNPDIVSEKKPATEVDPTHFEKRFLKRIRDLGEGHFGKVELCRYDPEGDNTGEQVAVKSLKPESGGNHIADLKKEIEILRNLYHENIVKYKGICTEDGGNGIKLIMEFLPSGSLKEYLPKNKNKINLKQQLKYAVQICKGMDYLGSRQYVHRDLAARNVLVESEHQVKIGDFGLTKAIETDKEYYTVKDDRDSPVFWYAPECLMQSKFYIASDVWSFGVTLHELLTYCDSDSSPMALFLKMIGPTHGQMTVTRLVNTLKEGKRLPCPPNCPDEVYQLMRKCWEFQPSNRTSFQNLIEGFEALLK
procedure-text: JAK1 microfluidic kinase assay (Caliper EZ Reader II, FAM labeled peptide substrate)
Format: biochemical
measurement-parameters: IC50 JAK1 (5 nM) (1 m MATP), JAK1 5 nM, 1 mM ATP
Experimental: Compounds were tested against JAK1, JAK2, JAK2V617F and TYK2. Assay Formats: JAK activity was determined in the reaction buffer 50 mM HEPES, 0.01% Brij35, 10 mM MgCl2, 2 mM DTT by a microfluidic assay. The phosphorylation of a FAM labeled peptide substrate was monitored in the Caliper EZ Reader II (Perkin Elmer). The assay condition for each batch of enzyme (Carna Biosciences) was optimized to obtain 10% conversion rate of peptide substrate. […]
pIC50: −log10 of the molar value.
assay-readout: pIC50

Cc1cnc(Nc2cnn(C3CCOCC3)c2)nc1-c1ccc(C(=O)N2CC(C#N)C2)cc1 : 6.63
CC[C@@H](C#N)NC(=O)c1ccc(-c2nc(Nc3cn[nH]c3)ncc2Cl)cc1 : 8.80
CC(=O)N1CC(n2cc(Nc3ncc(C)c(-c4ccc(C(=O)N[C@@H](C)C#N)cc4)n3)cn2)C1 : 7.65
CC[C@@H](C#N)NC(=O)c1ccc(-c2nc(Nc3cnn(C4CCCNC4)c3)ncc2C)cc1 (stereo partly shown) : 7.94
C[C@@H](C#N)NC(=O)c1ccc(-c2nc(Nc3cnn(CC#N)c3)ncc2F)cc1 : 7.16
Cc1cnc(Nc2cnn(C3CC(C)(C)OC(C)(C)C3)c2)nc1-c1ccc(C(=O)N[C@@H](C)C#N)c(F)c1 : 7.01
Cc1cnc(Nc2cnn(C3CCN(C(=O)C4(F)CC4)CC3)c2)nc1-c1ccc(C(=O)NCC#N)cc1 : 7.83
Cc1cnc(Nc2cnn(C3CCC(F)(F)CC3)c2)nc1-c1ccc(C(=O)NCC#N)cc1 : 7.96
Cc1cnc(Nc2cnn(C3CCN(C(=O)C4CC4)CC3)c2)nc1-c1ccc(C(=O)NCC#N)cc1 : 7.86
N#CCNC(=O)c1ccc(-c2nc(Nc3cnn(CC(N)=O)c3)ncc2Cl)cc1 : 7.04

I. N#CCNC(=O)c1ccc(-c2nc(Nc3cnn(CC#N)c3)ncc2Cl)cc1
II. Cc1cnc(Nc2cnn(C3CC4CCC(C3)N4C(=O)C3CC3)c2)nc1-c1ccc(C(=O)NCC#N)cc1 (stereo not shown)
III. Cc1cnc(Nc2cnn(C3CC3)c2)nc1-c1ccc(C(=O)NCC#N)nc1
IV. C[C@H](C#N)NC(=O)c1ccc(-c2nc(Nc3cnn(C4CCN(C)CC4)c3)ncc2F)cc1
Data request: Sort the 4 compounds by pIC50; largest first, smallest last. Answer format: the labels, ordered as requested.
Data returned: I, III, II, IV
(I: 8.19, III: 7.70, II: 7.47, IV: 6.53)

###

procedure-text: Dog pharmacokinetic study (intravenous and oral)
Type: in vivo
measurement-parameters: plasma, Beagle dogs, oral, 5 mg/kg, solution
assay-readout: half-life (h)

CC[C@@H](C#N)NC(=O)c1ccc(-c2nc(Nc3cnn(C4CCNCC4)c3)ncc2Cl)cc1 [Example 183] : 3.34

1. CC[C@@H](C#N)NC(=O)c1ccc(-c2nc(Nc3cnn(C4CCN(C)CC4)c3)ncc2C)cc1 [Example 184]
2. Cc1cnc(Nc2cnn(C3CCN(C(=O)CO)CC3)c2)nc1-c1ccc(C(=O)N[C@@H](C)C#N)cc1 [Example 119]
Data request: Compare half-life: is it lower for 1 or for 2 ? Return value: the label identifying the chosen record.
Data returned: 2
